src = PubChem BioAssay AID686979

Test Method Notes: qHTS for Inhibitors of human tyrosyl-DNA phosphodiesterase 1 (TDP1): qHTS in cells in presence of CPT; further: nearly all actives have a fitted effect of over 55% in size
Conditions: chicken DT40 Tdp1-/-;hTDP1 cells + 20 nM CPT, ATP luminescence, 48 h; series mostly up to 46.2 µM
Screen size: about 420,000 compounds; about 50,000 (12%) were called active. Inconclusive results (about 26%) are left out. The call rests on the fitted dose curve; in most records, active means well fitted inhibition curve with a large enough effect; inconclusive means small, poorly fitted or top-dose-only effect; inactive means flat fitted curve, though single readings scatter. This is one part of a sample in which actives are shown more often than they occur.
Give one outcome, nothing more. List: active, inactive

Previously resolved entries follow.
stdin: Assay result, entry CCOc1ccc(/C=N/Nc2nncc(-c3ccccc3)n2)cc1OC — outcome?
stdout: active

stdin: Assay result, entry O=C(NCCc1ccccc1)Oc1ccc(Cl)cc1 — outcome?
stdout: inactive

New cases:
stdin: Assay result, entry CNC(=O)c1ccc(CN(C)C(=O)c2cc(C3CC3)nc3c2cnn3C(C)C)cc1 — outcome?
stdout: inactive

stdin: Assay result, entry O=C(CCSCc1ccccc1F)N1CCN(c2ccc(Cl)cc2)CC1 — outcome?
stdout: active

stdin: Assay result, entry Cc1cc(C)n(CCC(=O)N2CCN(S(=O)(=O)c3ccc(C)c(C)c3)CC2)n1 — outcome?
stdout: inactive

stdin: Assay result, entry CCC(C)NC(=O)C1c2ccccc2C(=O)N1Cc1ccccc1 (stereo unspecified) — outcome?
stdout: inactive

stdin: Assay result, entry COc1cccc(/C=N\Nc2nncc(-c3ccccc3)n2)c1 — outcome?
stdout: inactive

* * *

Test Method Notes: qHTS for Inhibitors of human tyrosyl-DNA phosphodiesterase 1 (TDP1): qHTS in cells in presence of CPT; further: nearly all actives have a fitted effect of over 55% in size
Conditions: chicken DT40 Tdp1-/-;hTDP1 cells + 20 nM CPT, ATP luminescence, 48 h; series mostly up to 46.2 µM
Out of some 420,000 compounds screened, about 50,000 (12%) were called active. Inconclusive results (about 26%) are left out. Calls follow the shape of the dose curve; as a rule, active = well fitted inhibition curve with a large enough effect; inconclusive = small, poorly fitted or top-dose-only effect; inactive = flat fitted curve, though single readings scatter. This excerpt belongs to a sample that is enriched for actives.
Give one outcome, nothing more. List: y for active, n for inactive

Previously resolved entries follow.
stdin: Assay result, entry O=C(Cc1ccc(NC(=O)C2CCCN(C(=O)CCc3ccccc3)C2)cc1)Nc1ccc(C(=O)N2CCOCC2)cc1 (configuration not stated) — outcome?
stdout: y

stdin: Assay result, entry CCCCCn1nnnc1-c1nc2cc3ccccc3cc2[nH]c1=O — outcome?
stdout: y

Could you now consider this next compound?
stdin: Assay result, entry O=C(Nc1ccc2c(c1)OCCO2)c1cnccn1 — outcome?
stdout: n

* * *

Test Method Notes: qHTS for Inhibitors of human tyrosyl-DNA phosphodiesterase 1 (TDP1): qHTS in cells in presence of CPT; further: nearly all actives have a fitted effect of over 55% in size
Conditions: chicken DT40 Tdp1-/-;hTDP1 cells + 20 nM CPT, ATP luminescence, 48 h; series mostly up to 46.2 µM
Out of some 420,000 compounds screened, about 50,000 (12%) were called active. About 26% were inconclusive and are not listed. Calls follow the shape of the dose curve; as a rule, active = well fitted inhibition curve with a large enough effect; inconclusive = small, poorly fitted or top-dose-only effect; inactive = flat fitted curve, though single readings scatter. The full list was thinned out, with actives kept by preference.
Give one outcome, nothing more. List: active, inactive

Previously resolved entries follow.
stdin: Assay result, entry O=S(=O)(NCC1CC1)c1ccc(F)c(Cl)c1 — outcome?
stdout: inactive

stdin: Assay result, entry CC1CCN(C(=O)CSc2nnc(-c3ccco3)n2N)CC1 — outcome?
stdout: inactive

stdin: Assay result, entry Cc1noc(C)c1C(=O)N1CCOCC1 — outcome?
stdout: inactive

stdin: Assay result, entry C=CCn1c(SCC(=O)Nc2ccc(NC(C)=O)cc2)nc2sc(C)c(C)c2c1=O — outcome?
stdout: inactive

stdin: Assay result, entry NNC(=O)c1ccc(Cl)cc1Cl — outcome?
stdout: inactive

stdin: Assay result, entry O=c1cnnc(Nc2ccccc2F)[nH]1 — outcome?
stdout: inactive

New cases:
stdin: Assay result, entry O=S(=O)(Cc1ccc(Cl)cc1Cl)c1ccc(Cl)cc1 — outcome?
stdout: active

stdin: Assay result, entry O=C(NCCOc1ccccc1)c1ccccc1 — outcome?
stdout: inactive

stdin: Assay result, entry O=C(CSCc1c(F)cccc1Cl)NCC1CCCO1 (configuration not stated) — outcome?
stdout: inactive

stdin: Assay result, entry O=C(NCCc1ccccc1)c1ccc(OCCOc2ccccc2)cc1 — outcome?
stdout: inactive

stdin: Assay result, entry COc1ccc(S(=O)(=O)N2CCN(C(=S)NCC3CCCO3)CC2)cc1OC (configuration not stated) — outcome?
stdout: inactive

stdin: Assay result, entry NNC(=O)CSc1nnc(-c2ccccc2)n1-c1ccccc1 — outcome?
stdout: inactive
